// provenance: the RNAGym collection of RNA variant scans (doi:10.7554/elife.80360)

Each item that follows carries a reported self-cleavage.
B1: HDV Ribozyme (parent)
chain: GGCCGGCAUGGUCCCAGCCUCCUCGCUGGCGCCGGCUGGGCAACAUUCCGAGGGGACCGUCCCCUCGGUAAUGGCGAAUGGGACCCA

Variants of: B1
Test: self-cleavage, relative activity (ratio to wild type); higher = more cleavage; co-transcriptional

Past entries and their recorded results:
* GUCCGGCAUGGUCGCAGCCUCCUCGCUGGCGCCGGCUGGGCAACAUUCCGAGGGGACCGUCCCCUCGGUAAUGGCGAAUGGGACCCA | 0.0354
* GGCCGGCAUGGUCCCAGCCUCCUCGCUGGCGCCGGCUGGGCAACAUUCCGAGGGCACAGUCCCCUCGGUAAUGGCGAAUGGGACCCA | 1.15
* GGCCGGAAUGGUCCCAGCCACCUCGCUGGCGCCGGCUGGGCAACAUUCCGAGGGGACCGUCCCCUCGGUAAUGGCGAAUGGGACCCA | 0

In plain terms, GGCCGGCAUUGUCCCAGCCUCCUCGCUGGCGCCGGCUGGGCAACAUUCCGAGGGGACCGUCCCCUCGGUAAUGGCGAUUGGGACCCA has a documented self-cleavage of 0.0554
